tested on: IGROV1 ovarian; assay: NCI tumour cell line growth inhibition, 384-well format
Below, each of the compounds is paired with its reported TGI value.
Numeric only. Scale: µM

1. N#CC[C@H](C1CCCC1)n1cc(-c2ncnc3[nH]ccc23)cn1 ... 84.4
2. N#Cc1c(Oc2ccc(F)c(NC(=O)Cc3cccc(C(F)(F)F)c3)c2)ccc2nc(NC(=O)C3CC3)sc12 ... 3.11

q: Recorded TGI of Cc1cc2c(C(C)C)c(O)c(O)c(C=O)c2c(O)c1-c1c(C)cc2c(C(C)C)c(O)c(O)c(C=O)c2c1O (tested in a mixture with another compound) , please.
a: 3.85

----------
test system: T-47D breast; assay: NCI tumour cell line growth inhibition, 384-well format; in the data active = GI50 below about 0.43 µM; inactive = the rest
Could you please pick one outcome from this set? active, inactive

1) O=C(NO)c1cnc(N2CCN(S(=O)(=O)c3ccc4ccccc4c3)CC2)nc1 ... active
2) CS[C@@]1(C(=O)Nc2ccc3[nH]nc(-c4ccc(OC(C)C)nc4)c3c2)CCN(CC(=O)N2CC=C(c3ccc(-c4ncn(C)n4)cc3)CC2)C1 ... inactive
3) CC(C)N(C[C@H]1O[C@@H](n2cnc3c(N)ncnc32)[C@H](O)[C@@H]1O)C1CC(CCc2nc3ccc(C(C)(C)C)cc3[nH]2)C1 (stereo not given in full) ... inactive

q: So what was the verdict on `N#CC[C@H](C1CCCC1)n1cc(-c2ncnc3[nH]ccc23)cn1` in this test?
a: inactive

q: Next record, please: `N#Cc1c(Oc2ccc(F)c(NC(=O)Cc3cccc(C(F)(F)F)c3)c2)ccc2nc(NC(=O)C3CC3)sc12`
a: inactive

----------
system: HCT-116 colon; test: NCI tumour cell line growth inhibition, 384-well format
# Lookup of reported TGI keyed by entry
Could you give me the number in nM? Just the number is fine.

Some molecules with known TGI results, for comparison:
1) Cc1cc2c(C(C)C)c(O)c(O)c(C=O)c2c(O)c1-c1c(C)cc2c(C(C)C)c(O)c(O)c(C=O)c2c1O (tested in a mixture with another compound) ... 3120
2) N#CC[C@H](C1CCCC1)n1cc(-c2ncnc3[nH]ccc23)cn1 ... 63400
3) N#Cc1c(Oc2ccc(F)c(NC(=O)Cc3cccc(C(F)(F)F)c3)c2)ccc2nc(NC(=O)C3CC3)sc12 ... 1850

We now examine a further molecule.
q: State the recorded TGI for this entry: `CS[C@@]1(C(=O)Nc2ccc3[nH]nc(-c4ccc(OC(C)C)nc4)c3c2)CCN(CC(=O)N2CC=C(c3ccc(-c4ncn(C)n4)cc3)CC2)C1`
a: 2390

----------
system: UACC-62 melanoma; test: NCI tumour cell line growth inhibition, 384-well format
quantity.measured: TGI (µM)
Unit µM implied. Number only.

1) Cc1cc2c(C(C)C)c(O)c(O)c(C=O)c2c(O)c1-c1c(C)cc2c(C(C)C)c(O)c(O)c(C=O)c2c1O (tested in a mixture with another compound) ... 3.25
2) N#CC[C@H](C1CCCC1)n1cc(-c2ncnc3[nH]ccc23)cn1 ... 41.7
3) N#Cc1c(Oc2ccc(F)c(NC(=O)Cc3cccc(C(F)(F)F)c3)c2)ccc2nc(NC(=O)C3CC3)sc12 ... 0.106

Okay, now this compound:
q: Data request, read-out TGI, for CC(C)N(C[C@H]1O[C@@H](n2cnc3c(N)ncnc32)[C@H](O)[C@@H]1O)C1CC(CCc2nc3ccc(C(C)(C)C)cc3[nH]2)C1 (some centres undefined)
a: 30.7

----------
Form field: TGI (one value per entry).
system: MOLT-4 leukemia; test: NCI tumour cell line growth inhibition, 384-well format
Give a bare numeral; the unit µM is implied.

1. CC(C)N(C[C@H]1O[C@@H](n2cnc3c(N)ncnc32)[C@H](O)[C@@H]1O)C1CC(CCc2nc3ccc(C(C)(C)C)cc3[nH]2)C1 (some centres undefined) ... 32.8
2. O=C(NO)c1cnc(N2CCN(S(=O)(=O)c3ccc4ccccc4c3)CC2)nc1 ... 0.0324
3. N#CC[C@H](C1CCCC1)n1cc(-c2ncnc3[nH]ccc23)cn1 ... 46.1

Turning now to a further molecule:
q: Fill in: TGI of Cc1cc2c(C(C)C)c(O)c(O)c(C=O)c2c(O)c1-c1c(C)cc2c(C(C)C)c(O)c(O)c(C=O)c2c1O (tested in a mixture with another compound) is ___
a: 2.01

----------
system: HOP-62 NSCLC; assay: NCI tumour cell line growth inhibition, 384-well format
Recorded TGI for the following compounds
Write the number in µM without appending the unit.

1) N#CC[C@H](C1CCCC1)n1cc(-c2ncnc3[nH]ccc23)cn1 ... 37.1
2) Cc1cc2c(C(C)C)c(O)c(O)c(C=O)c2c(O)c1-c1c(C)cc2c(C(C)C)c(O)c(O)c(C=O)c2c1O (tested in a mixture with another compound) ... 3.9

q: Provide value of TGI for this record tested with HOP-62 NSCLC: O=C(CC1(O)C(=O)Nc2c(Cl)ccc(Cl)c21)c1ccc(C2CC2)cc1 (centres undefined)
a: 13.4

----------
tested on: BT-549 breast; test: NCI tumour cell line growth inhibition, 384-well format
TGI values, listed per item
Could you give me the number in nM? Just the number is fine.

1) Cc1cc2c(C(C)C)c(O)c(O)c(C=O)c2c(O)c1-c1c(C)cc2c(C(C)C)c(O)c(O)c(C=O)c2c1O (tested in a mixture with another compound) ... 2940
2) CC(C)N(C[C@H]1O[C@@H](n2cnc3c(N)ncnc32)[C@H](O)[C@@H]1O)C1CC(CCc2nc3ccc(C(C)(C)C)cc3[nH]2)C1 (some centres undefined) ... 32500

Please find the next compound below.
q: Would you kindly share the measured TGI for `O=C(NO)c1cnc(N2CCN(S(=O)(=O)c3ccc4ccccc4c3)CC2)nc1` ?
a: 319

----------
system: NCI-H23 lung; assay: NCI tumour cell line growth inhibition, 384-well format
Label rule, in plain words: TGI of 1 µM and up is MET, under 1 µM is NOT MET.

1. CC(C)N(C[C@H]1O[C@@H](n2cnc3c(N)ncnc32)[C@H](O)[C@@H]1O)C1CC(CCc2nc3ccc(C(C)(C)C)cc3[nH]2)C1 (stereo partly specified) ... MET
2. Cc1cc2c(C(C)C)c(O)c(O)c(C=O)c2c(O)c1-c1c(C)cc2c(C(C)C)c(O)c(O)c(C=O)c2c1O (tested in a mixture with another compound) ... MET
3. O=C(CC1(O)C(=O)Nc2c(Cl)ccc(Cl)c21)c1ccc(C2CC2)cc1 (stereo unspecified) ... NOT MET
4. N#CC[C@H](C1CCCC1)n1cc(-c2ncnc3[nH]ccc23)cn1 ... MET
5. CS[C@@]1(C(=O)Nc2ccc3[nH]nc(-c4ccc(OC(C)C)nc4)c3c2)CCN(CC(=O)N2CC=C(c3ccc(-c4ncn(C)n4)cc3)CC2)C1 ... NOT MET

With those in mind, consider the next compound.
q: Hello, I need to know if `N#Cc1c(Oc2ccc(F)c(NC(=O)Cc3cccc(C(F)(F)F)c3)c2)ccc2nc(NC(=O)C3CC3)sc12` has measured TGI not below 1 µM. Thanks!
a: MET

----------
system: NCI-H460 NSCLC; test: NCI tumour cell line growth inhibition, 384-well format
quantity.measured: TGI (µM)
State just the number; it will be interpreted in µM.

1. Cc1cc2c(C(C)C)c(O)c(O)c(C=O)c2c(O)c1-c1c(C)cc2c(C(C)C)c(O)c(O)c(C=O)c2c1O (tested in a mixture with another compound) ... 3.4

Please examine the following record next.
q: Fill in: TGI of CC(C)N(C[C@H]1O[C@@H](n2cnc3c(N)ncnc32)[C@H](O)[C@@H]1O)C1CC(CCc2nc3ccc(C(C)(C)C)cc3[nH]2)C1 (some centres undefined) is ___
a: 43

----------
test system: KM12 colon; experiment: NCI tumour cell line growth inhibition, 384-well format
quantity.measured: TGI

Completed entries (count: 2):
1) CC(C)N(C[C@H]1O[C@@H](n2cnc3c(N)ncnc32)[C@H](O)[C@@H]1O)C1CC(CCc2nc3ccc(C(C)(C)C)cc3[nH]2)C1 (stereo partly drawn) ... > 100 µM
2) N#Cc1c(Oc2ccc(F)c(NC(=O)Cc3cccc(C(F)(F)F)c3)c2)ccc2nc(NC(=O)C3CC3)sc12 ... > 100 µM

For the next question, use this molecule.
q: I'd like to know its TGI. The molecule in question is `N#CC[C@H](C1CCCC1)n1cc(-c2ncnc3[nH]ccc23)cn1`
a: > 100 µM
